Molecular target: Peroxisome proliferator-activated receptor gamma (Homo sapiens, UniProt P37231)
Sequence (P37231 whole entry): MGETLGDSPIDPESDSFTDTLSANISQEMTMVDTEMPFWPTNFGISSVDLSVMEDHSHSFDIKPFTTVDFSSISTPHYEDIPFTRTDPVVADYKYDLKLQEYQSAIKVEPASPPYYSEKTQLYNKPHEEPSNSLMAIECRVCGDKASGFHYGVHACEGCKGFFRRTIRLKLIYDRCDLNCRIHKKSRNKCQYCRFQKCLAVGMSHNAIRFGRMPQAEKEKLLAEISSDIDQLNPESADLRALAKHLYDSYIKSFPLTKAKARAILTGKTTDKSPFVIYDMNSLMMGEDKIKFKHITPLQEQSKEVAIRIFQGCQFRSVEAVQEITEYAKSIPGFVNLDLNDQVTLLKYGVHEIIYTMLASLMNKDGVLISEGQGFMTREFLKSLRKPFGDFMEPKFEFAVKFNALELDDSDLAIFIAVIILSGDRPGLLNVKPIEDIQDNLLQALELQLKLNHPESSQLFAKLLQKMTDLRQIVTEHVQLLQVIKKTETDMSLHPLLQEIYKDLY
Test: Agonist activity at human recombinant PPARgamma
Parameter Measured: EC50 (nM)
Report the value in nM with no unit label.

Take a look at these entries with their results.
Cc1cnc2c(C(F)(F)F)cccc2c1-c1cccc(CNc2cccc3c(CC(=O)O)cccc23)c1; 40
O=C(O)Cc1cccc2c(NCc3cccc(-c4ccnc5c(C(F)(F)F)cccc45)c3)cccc12; 69

input: What value of EC50 has been recorded for this entry: O=C(O)Cc1cccc2c(NCc3cccc(-c4c(Cc5ccccc5)cnc5c(C(F)(F)F)cccc45)c3)cccc12
output: 84
